These entries and their values trace back to patent US7745450B2.

- System: CEM (human lymphoblastoid leukemia)
- experimental-details: In vitro cytotoxic activity, Calcein AM
- Assay type: cell-based
- measurement-parameters: Homo sapiens, 72 h, three days
readout-type: GI50 (µM)
Please give a number only; it is taken to be in µM.

Solved entries (count: 2):
molecule=CC[C@H](CO)Nc1nc(Nc2ccc(O)c(C(=O)O)c2)c2[nH]nc(C(C)C)c2n1 unit_label=µM test_value=18.4
molecule=CC(C)c1n[nH]c2c(NCc3ccccc3O)nc(N[C@@H](CO)C(C)C)nc12 unit_label=µM test_value=6.7

Then there is this molecule:
[Q] Quick check: GI50 on CEM (human lymphoblastoid leukemia), item CC(C)c1n[nH]c2c(Nc3cccc(Cl)c3)nc(N[C@@H](CO)C(C)C)nc12 ?
[A] 1.2

* * *

- system-tested: IκB-α kinase
- experimental-details: IκB-α kinase inhibition, in vitro kinase assay
- Format: biochemical
pIC50 listing for selected compounds.
Worth noting: pIC50 values are minus log10 of concentrations stated in mol/L.

Solved entries (count: 3):
smiles_repr=CC[C@H](CO)Nc1nc(NCc2ccccc2O)c2[nH]nc(C(C)C)c2n1 readout_type=pIC50 test_value=7.92
smiles_repr=COc1cccc(CNc2nc(N[C@@H](CO)C(C)C)nc3c(C(C)C)n[nH]c23)c1O readout_type=pIC50 test_value=7.82
smiles_repr=CC[C@H](CO)Nc1nc(Nc2ccc(Br)cc2)c2[nH]nc(C(C)C)c2n1 readout_type=pIC50 test_value=8.00

[Q] Find the recorded pIC50 belonging to CC[C@H](CO)Nc1nc(NCc2cccc(C)c2O)c2[nH]nc(C(C)C)c2n1 and report it.
[A] 7.85

[Q] Find the recorded pIC50 belonging to Cc1n[nH]c2c(NCc3c(O)cc(Cl)cc3O)nc(NCCO)nc12 and report it.
[A] 7.92

* * *

- Test system: Cytokinin-dependent tobacco callus Nicotiana tabacum L. cv. Wisconsins 38
- experimental-details: Tobacco callus bioassay for cytotoxicity (herbicidal activity)
- Format: cell-based
- measurement-parameters: Nicotiana tabacum, 672 h, read-out: 10^−6 M BAP IC50, 10^−6 M 6-benzylaminopurine, four weeks
readout-type: pIC50
Worth noting: pIC50 values are minus log10 of concentrations stated in mol/L.

smiles_repr=CC[C@H](CO)Nc1nc(NCc2cccc(C)c2O)c2[nH]nc(C(C)C)c2n1 readout_type=pIC50 test_value=4.91
smiles_repr=CC[C@H](CO)Nc1nc(NCc2ccccc2OC(C)=O)c2[nH]nc(C(C)C)c2n1 readout_type=pIC50 test_value=4.91
smiles_repr=CC[C@H](CO)Nc1nc(NCc2ccc(Cl)c(N)c2N)c2[nH]nc(C(C)C)c2n1 readout_type=pIC50 test_value=5.08

[Q] Find the recorded pIC50 belonging to CC(C)c1n[nH]c2c(Nc3cccc(Cl)c3)nc(N[C@@H](CO)C(C)C)nc12 and report it.
[A] 4.96

[Q] Find the recorded pIC50 belonging to Cc1cccc(CNc2nc(N[C@@H](CO)C(C)C)nc3c(C(C)C)n[nH]c23)c1O and report it.
[A] 4.97

[Q] Find the recorded pIC50 belonging to CC[C@H](CO)Nc1nc(Nc2ccc(N)c(Cl)c2)c2[nH]nc(C(C)C)c2n1 and report it.
[A] 5.06

[Q] Find the recorded pIC50 belonging to CC[C@H](CO)Nc1nc(Nc2ccc(C(=O)O)c(Cl)c2)c2[nH]nc(C(C)C)c2n1 and report it.
[A] 4.89

* * *

- system-tested: IκB-α kinase
- experimental-details: IκB-α kinase inhibition, in vitro kinase assay
readout-type: pIC50
Worth noting: pIC50 values are minus log10 of concentrations stated in mol/L.

[Q] Find the recorded pIC50 belonging to Cc1n[nH]c2c(Nc3ccc(C(=O)O)c(Cl)c3)nc(NCCO)nc12 and report it.
[A] 7.85

[Q] Find the recorded pIC50 belonging to CC(C)c1n[nH]c2c(NCc3ccccc3)nc(N[C@@H](CO)C(C)C)nc12 and report it.
[A] 8.00

* * *

- system-tested: IκB-α kinase
- experimental-details: IκB-α kinase inhibition, in vitro kinase assay
IC50 listing for selected molecules.
Please give a number only; it is taken to be in nM.

Solved entries (count: 6):
molecule=CC[C@H](CO)Nc1nc(Nc2ccc(Cl)cc2)c2[nH]nc(C(C)C)c2n1 system_tested="IκB-α kinase" readout_type=IC50 test_value=9
molecule=CC(C)c1n[nH]c2c(NCc3cccc(Cl)c3O)nc(N[C@@H](CO)C(C)C)nc12 system_tested="IκB-α kinase" readout_type=IC50 test_value=4
molecule=CC(C)c1n[nH]c2c(N(C)CCc3ccc(O)c(O)c3)nc(N[C@@H](CO)C(C)C)nc12 system_tested="IκB-α kinase" readout_type=IC50 test_value=150
molecule=CC[C@H](CO)Nc1nc(NCc2ccccc2)c2[nH]nc(C)c2n1 system_tested="IκB-α kinase" readout_type=IC50 test_value=300
molecule=Cc1n[nH]c2c(NCc3ccccc3O)nc(NCCO)nc12 system_tested="IκB-α kinase" readout_type=IC50 test_value=50
molecule=CC[C@H](CO)Nc1nc(Nc2ccc(N)c(Cl)c2)c2[nH]nc(C(C)C)c2n1 system_tested="IκB-α kinase" readout_type=IC50 test_value=9

[Q] Find the recorded IC50 belonging to CC(C)c1n[nH]c2c(Nc3cccc(Cl)c3)nc(NCCO)nc12 and report it.
[A] 280

[Q] Find the recorded IC50 belonging to CC[C@H](CO)Nc1nc(NCc2cccc(C(C)=O)c2)c2[nH]nc(C(C)C)c2n1 and report it.
[A] 40

* * *

- system-tested: cdk1/cyclin B (CDC2) (Homo sapiens, UniProt P06493)
- Sequence (P06493 whole entry, species assumed): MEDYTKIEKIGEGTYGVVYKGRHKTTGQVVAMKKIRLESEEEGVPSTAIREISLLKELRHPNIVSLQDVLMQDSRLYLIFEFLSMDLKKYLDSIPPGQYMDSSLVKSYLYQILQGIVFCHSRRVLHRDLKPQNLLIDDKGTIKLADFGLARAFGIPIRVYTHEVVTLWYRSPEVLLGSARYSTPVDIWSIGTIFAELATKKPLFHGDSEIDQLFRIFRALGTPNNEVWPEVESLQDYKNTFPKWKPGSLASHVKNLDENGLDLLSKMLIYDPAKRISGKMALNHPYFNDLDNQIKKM
- Sequence (P14635 whole entry partner, species assumed): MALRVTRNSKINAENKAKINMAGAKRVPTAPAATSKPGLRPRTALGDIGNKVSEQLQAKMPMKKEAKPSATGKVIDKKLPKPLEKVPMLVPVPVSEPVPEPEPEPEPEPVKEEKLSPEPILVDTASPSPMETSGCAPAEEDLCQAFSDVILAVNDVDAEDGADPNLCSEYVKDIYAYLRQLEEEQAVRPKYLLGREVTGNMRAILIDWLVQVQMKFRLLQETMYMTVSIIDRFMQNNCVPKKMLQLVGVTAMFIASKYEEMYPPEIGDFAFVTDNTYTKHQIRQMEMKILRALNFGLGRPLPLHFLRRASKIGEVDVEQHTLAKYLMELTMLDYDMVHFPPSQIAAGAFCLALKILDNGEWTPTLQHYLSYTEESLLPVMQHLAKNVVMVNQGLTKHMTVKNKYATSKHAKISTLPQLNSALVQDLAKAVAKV
- experimental-details: CDK inhibition assay, cdk1/cyclin B (CDC2) kinase, histone phosphorylation
- Format: biochemical
pIC50 listing for selected compounds.
Worth noting: pIC50 values are minus log10 of concentrations stated in mol/L.

[Q] Quick check: pIC50 on cdk1/cyclin B (CDC2) (Homo sapiens, UniProt P06493), item CC[C@H](CO)Nc1nc(NCc2cccc(Cl)c2O)c2[nH]nc(C(C)C)c2n1 ?
[A] 8.15

[Q] Quick check: pIC50 on cdk1/cyclin B (CDC2) (Homo sapiens, UniProt P06493), item Cc1n[nH]c2c(Nc3ccc(C(=O)O)c(Cl)c3)nc(NCCO)nc12 ?
[A] 8.15

[Q] Quick check: pIC50 on cdk1/cyclin B (CDC2) (Homo sapiens, UniProt P06493), item Cc1n[nH]c2c(Nc3cc(N)cc(Cl)c3)nc(NCCO)nc12 ?
[A] 8.00

[Q] Quick check: pIC50 on cdk1/cyclin B (CDC2) (Homo sapiens, UniProt P06493), item Cc1n[nH]c2c(NCc3ccc(Cl)c(O)c3O)nc(NCCO)nc12 ?
[A] 8.05

* * *

- Test system: CEM (human lymphoblastoid leukemia)
- experimental-details: In vitro cytotoxic activity, Calcein AM
- Assay type: cell-based
- measurement-parameters: Homo sapiens, 72 h, three days
Could you mark each record class 1 if its GI50 falls strictly under 8 µM, and class 0 if it equals or exceeds it?

[Q] Regarding CC[C@H](CO)Nc1nc(Nc2ccc(Cl)cc2)c2[nH]nc(C(C)C)c2n1 , kindly confirm whether its GI50 is beneath 8 µM.
[A] class 1

[Q] Regarding CC(C)c1n[nH]c2c(Nc3ccc(C(=O)O)c(Cl)c3)nc(N[C@@H](CO)C(C)C)nc12 , kindly confirm whether its GI50 is beneath 8 µM.
[A] class 1

[Q] Regarding COc1ccc(CNc2nc(NCCO)nc3c(C)n[nH]c23)c(O)c1O , kindly confirm whether its GI50 is beneath 8 µM.
[A] class 1

[Q] Regarding CC(C)c1n[nH]c2c(N(C)Cc3ccc(O)c(O)c3)nc(N[C@@H](CO)C(C)C)nc12 , kindly confirm whether its GI50 is beneath 8 µM.
[A] class 1

[Q] Regarding CC(C)c1n[nH]c2c(Nc3ccc(Cl)c(C(=O)O)c3)nc(N[C@@H](CO)C(C)C)nc12 , kindly confirm whether its GI50 is beneath 8 µM.
[A] class 1

[Q] Regarding CC(C)c1n[nH]c2c(Nc3cc(N)cc(Cl)c3)nc(N[C@@H](CO)C(C)C)nc12 , kindly confirm whether its GI50 is beneath 8 µM.
[A] class 0

[Q] Regarding CC[C@H](CO)Nc1nc(N(C)CCc2ccc(O)c(O)c2)c2[nH]nc(C(C)C)c2n1 , kindly confirm whether its GI50 is beneath 8 µM.
[A] class 0

[Q] Regarding CC[C@H](CO)Nc1nc(NCc2cc(O)c(Cl)cc2O)c2[nH]nc(C(C)C)c2n1 , kindly confirm whether its GI50 is beneath 8 µM.
[A] class 1

[Q] Regarding CC(C)c1n[nH]c2c(NCc3cc(O)c(Cl)cc3O)nc(N[C@@H](CO)C(C)C)nc12 , kindly confirm whether its GI50 is beneath 8 µM.
[A] class 1

[Q] Regarding CC(C)c1n[nH]c2c(NCc3ccccc3)nc(NCCO)nc12 , kindly confirm whether its GI50 is beneath 8 µM.
[A] class 0
